assay notes: Solubility studies (excess powder, 24 h, 25 °C, HPLC)
Assay type: physicochemical
run parameters: aqueous buffer, thermodynamic from solid; pH 6.8 phosphate buffer, 24 h, 25 °C; read-out: Solubility, Piperine Conc.
measure: solubility at 24 h
Hi, when you answer, please include the unit after the number. Thanks!

**Q:** State its solubility at 24 h for this compound: O=C(/C=C/C=C/c1ccc2c(c1)OCO2)N1CCCCC1
**A:** 8 µg/mL

###

assay notes: Solubility studies (excess powder, 24 h, 25 °C, HPLC)
Type: physicochemical
run parameters: HCl solution; pH 1.2 HCl, 24 h, 25 °C; read-out: Solubility, Curcumin Conc.
measure: solubility at 24 h (µg/mL)
Output spec: scalar in µg/mL, unitless text.

**Q:** State its solubility at 24 h for this compound: COc1cc(/C=C/C(=O)CC(=O)/C=C/c2ccc(O)c(OC)c2)ccc1O [Curcumin]
**A:** 0.11
